system: KM12 colon; assay: NCI-60 one-dose screen, 48 h; conditions: 10 µM unless noted
About 83,000 compounds went through this panel and 20% of them were active in at least one assay; those are over-represented in the sample as a whole. The source made the active and inactive calls. Rule for the calls: active = growth percent below 10; inactive = the rest.
Labels: active, inactive

>>> print(df.to_string())
                                    compound  label_class
 0          O=c1oc2ccc([N+](=O)[O-])cc2cc1Br     inactive
 1  CCN(CC)CCNC(=O)c1cn2ncnc(Oc3ccc(NC(=O)Nc4ccc(Cl)c(C(F)(F)F)c4)c(F)c3)c2c1C       active
 2  O=C1c2cccnc2C(=O)c2c1c(C(=O)NCCn1ccnc1)c1ccccn21     inactive
 3   COc1ccc(C(=S)N2CCN(c3ccccc3Cl)CC2)cc1OC     inactive
 4  O=C(Nc1nn(-c2ccc(Cl)cc2Cl)nc1-c1ccccc1)c1ccccc1     inactive
 5      CCCCCOc1ccc(C(=O)/C(Br)=C/C(=O)O)cc1     inactive
 6  COc1ccc(/C=C2\C(=O)N=C3N2NC(c2cc(Br)ccc2O)C=C(C)N3c2ccccc2)cc1 (stereo not given)     inactive
 7  C#Cc1ccc(NC(=O)c2ccc(/C=C/C(=O)c3nccn3C)cc2)cc1       active
 8  COC(=O)c1n[nH]c2ccc3nc(-c4cn[nH]c4C(F)(F)F)c4c(c3c12)CCCC4     inactive
 9  Cc1ccc(C2=Nc3c(N)ncnc3NC(c3ccc4c(c3)OCO4)C2)cc1 (stereo not given)     inactive
10  Cc1ccc2c3c(c(=O)[nH]c2c1)C1(C(C#N)=C(N)O3)c2cc(Br)ccc2-c2ccc(Br)cc21       active
11  Cn1cccc1C(=O)C1C(c2cccc([N+](=O)[O-])c2)C2C3CCCCC3CN2C12C(=O)Nc1ccc(Cl)cc12 (stereo not given)     inactive
12  O=C(c1ccc(-c2ccccc2)cc1)c1ccc([N+](=O)[O-])cc1     inactive
13  Nc1ncnc2c1N=C(c1ccc3c(c1)OCO3)CC(c1ccc([N+](=O)[O-])cc1)N2 (stereo not given)     inactive
14  CCNc1nc(-c2ccc(Cl)c(OC)c2)c(-c2ccnc(NCCCNS(=O)(=O)c3ccc(Cl)cc3)n2)s1     inactive
15  Fc1ccc2[nH]cc(-c3nonc3-c3c[nH]c4ccc(Br)cc34)c2c1       active
16  CCN1CCN(c2cc(C(=O)Nc3nc(-c4cc(OC)c(OC)c(OC)c4)cs3)cc(C(F)(F)F)c2)CC1     inactive
17  COc1ccc(-c2cn(-c3cc(OC)c(OC)c(OC)c3)c(=O)n2C(C)=O)cc1     inactive
18           S=C1CCSC(=S)N1CCCN1C(=S)CCSC1=S     inactive
19  COc1ccc(OC)c(C(=O)/C=C/c2cc3c(c(OC)c2OC)OCO3)c1     inactive

---

system: OVCAR-3 ovarian; assay: NCI-60 one-dose screen, 48 h (100 = growth as untreated, 0 = no growth, -100 = all killed); conditions: 10 µM unless noted
The panel holds about 83,000 compounds, 20% with a hit somewhere; the sample as a whole holds those more often.
Label t when growth is at or above 40%; otherwise label f.

                                   compound  label_class
0  CC(=O)OC[C@]12CCC(C)(C)C[C@H]1[C@@]1(O)[C@H](O)C[C@@H]3[C@@]4(C)CCCNC(C)(C)[C@@H]4CC[C@@]3(C)[C@]1(C)CC2            t
1  O=C(Nc1nc2ccc(F)cc2s1)c1cccnc1Nc1ccc(Cl)cc1            f
2  COc1cc(OC)cc(C2=C3CC[C@@H]4[C@H](CC[C@]5(C)C(=O)CC[C@@H]45)C3=CC3C(O)c4cccnc4N4C(=O)COC234)c1 (stereo partly drawn)            t
3  Cn1c(O)c(C=NCCN=Cc2c(O)n(C)c(=O)n(C)c2=O)c(=O)n(C)c1=O            t
4  CCN(CC)CCNC(=O)c1cn2ncnc(Oc3ccc(NC(=O)Nc4ccc(Cl)c(C(F)(F)F)c4)c(F)c3)c2c1C            f
5  Fc1ccc2[nH]cc(-c3nonc3-c3c[nH]c4ccc(Br)cc34)c2c1            f
